- protocol: chemical genetic growth profiling, strain panel (AID 1159580);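 also: tested at 20 µM; growth read once vehicle control cultures reached saturation at 30 °C; 1 = growth at the plate median or of vehicle wells; lower values mean less growth of the strain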
- condition-parameters: S. cerevisiae deletion strains, growth OD, locus YAL040C, strain CLN3, active compounds read low
Out of some 5,500 compounds screened, about 2,000 (36%) were called active. About 18% were inconclusive and are not listed. Some of the results follow.
Returns: string. Value is rule met if measured normalized growth is below 1, and rule not met if it is greater than or equal to it.

compound_structure=N[C@H](CCCCCP(=O)(O)O)C(=O)O assigned_label="rule not met"
compound_structure=CCCC(C(=O)OCCN(CC)CC)(c1ccccc1)c1ccccc1 assigned_label="rule not met"

For the next question, use this compound.
Query: normalized growth under 1? Item: CNC(=O)[C@H]1O[C@@H](n2cnc3c(NCc4ccc(I)cc4)nc(Cl)nc32)[C@H](O)[C@@H]1O
Result: rule met

----------
- protocol: chemical genetic growth profiling, strain panel (AID 1159580)
- condition-parameters: S. cerevisiae deletion strains, growth OD, locus YGR078C, strain PAC10, active compounds read low
The whole screen tested about 5,500 compounds, of which about 2,000 (36%) were called active. Roughly 18% stayed inconclusive and do not appear here. Some of the results follow.
# key: entry, value: normalized growth
Format: numeric value only, no unit, no commentary.

Here is how some compounds turned out for normalized growth.
compound_structure=CCC(=O)c1c(C)c(C)c(C)c(C)c1C quantitative_result=1
compound_structure=COC(=O)c1c(C)cc(OC(=O)c2c(C)c(Cl)c(O)c(C=O)c2O)c(C)c1O quantitative_result=0.988
compound_structure=CC1=C2[C@H]3OC(=O)[C@@H](C)[C@@H]3CC[C@@]2(C)C=CC1=O quantitative_result=1.02
compound_structure=COc1ccc(CCN(C)CCc2ccc(OC)c(OC)c2)cc1OC quantitative_result=0.992
compound_structure=Cc1cc(NS(=O)(=O)c2ccc(NS(=O)(=O)c3cc(C)c(Cl)cc3C)cc2)no1 quantitative_result=1.01

Query: What value of normalized growth has been recorded for this entry: COc1cc(C)c(C(=O)Oc2cc(C)c(C(=O)O)c(O)c2C)c(OC)c1C
Result: 0.992

----------
- protocol: chemical genetic growth profiling, strain panel (AID 1159580)
- condition-parameters: S. cerevisiae deletion strains, growth OD, locus YNL197C, strain WHI3, active compounds read low
In all, about 5,500 compounds went through this assay and about 2,000 (36%) were called active. Another 18% or so got no clear call; they are omitted. The list shows a part of the results.
experimental-endpoint: normalized growth
Format: numeric value only, no unit, no commentary.

compound=O=c1[nH]cnc2[nH]ncc12 experimental_endpoint="normalized growth" quantitative_result=1.01
compound=N[C@@H](Cc1c[nH]c2ccc(O)cc12)C(=O)O experimental_endpoint="normalized growth" quantitative_result=1
compound=COc1ccc(C(=O)N2CCCC2=O)cc1 experimental_endpoint="normalized growth" quantitative_result=1.01

Query: What value of normalized growth has been recorded for this entry: N#Cc1cc2nc(O)c(O)nc2cc1[N+](=O)[O-]
Result: 0.997

Query: Request: S=C(Nc1ccccc1)Nc1nccs1
Result: 0.993

Query: Request: CCCCS(=N)(=O)CCC(N)C(=O)O (configuration not stated)
Result: 0.94

Query: Request: CCCC(CCC)C(=O)O
Result: 0.971

----------
- protocol: chemical genetic growth profiling, strain panel (AID 1159580)
- condition-parameters: S. cerevisiae deletion strains, growth OD, locus YDL035C, strain GPR1
Screen size: about 5,500 compounds; about 2,000 (36%) were called active. Inconclusive results (about 18%) are left out. Cut-off read from the data, not from the text of the source: active = normalized growth mostly below about 0.91 (no sharp cut-off); inconclusive = no clear call, values can overlap the other calls; inactive = mostly above about 0.92. This is one part of the list.
The reply should name one outcome from active, inactive

Query: What did the test return for O=c1cc(-c2ccccc2)oc2cc(O)c(O)c(O)c12 ?
Result: active

Query: Request: N#C/C(=C\c1cccc(O)c1)C(=O)O
Result: inactive

Query: Request: CN1CCN(C2=Nc3ccccc3Oc3ccc(Cl)cc32)CC1
Result: inactive

Query: Request: Cc1nc2sccn2c(=O)c1CCN1CCC(=C(c2ccc(F)cc2)c2ccc(F)cc2)CC1
Result: active

Query: Request: COC(=O)CCC(=O)O[C@H]1CCC2(C)C(CCC3C2C(=O)[C@@H](O)C2(C)C3CC3OC4(CCC(C)CO4)[C@@H](C)C32)C1 (stereo partly specified)
Result: inactive

Query: Request: S=P(N1CC1)(N1CC1)N1CC1
Result: inactive

----------
- protocol: chemical genetic growth profiling, strain panel (AID 1159580)
- condition-parameters: S. cerevisiae deletion strains, growth OD, locus YOR119C, strain RIO1, active compounds read low
The campaign covered roughly 5,500 compounds. About 2,000 (36%) were called active. Not shown: some 18% with an inconclusive outcome. The list shows a part of the results.
Returns: string. Value is Satisfied if measured normalized growth is below 0.9, and Not satisfied if it is greater than or equal to it.

Consider the worked cases shown below.
compound_structure=Oc1ccc(N=Nc2ccccn2)c(O)c1 assigned_label=Satisfied
compound_structure=CSC(=NNc1ccccc1)NC(=O)c1c(Cl)cccc1Cl assigned_label="Not satisfied"
compound_structure=S=C(Nc1cc(Cl)c(Cl)cc1Cl)Nc1ccccc1Br assigned_label=Satisfied
compound_structure=C/C(=N/Nc1ccccc1)c1cc(Cl)cc(Cl)c1O assigned_label=Satisfied

Query: normalized growth under 0.9? Item: O=C(Nc1ccc(Cl)cc1)O/N=C\c1ccn(-c2ccccc2)n1
Result: Not satisfied

Query: Request: COc1cc(CC/C(C)=N\O)ccc1OCc1ccc(Cl)c(Cl)c1
Result: Not satisfied

Query: Request: CNC(=O)n1nc(C)c(Cc2csc3ccc(Cl)cc23)c1C
Result: Not satisfied

----------
- protocol: chemical genetic growth profiling, strain panel (AID 1159580);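 also: tested at 20 µM; growth read once vehicle control cultures reached saturation at 30 °C; 1 = growth at the plate median or of vehicle wells; lower values mean less growth of the strain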
- condition-parameters: S. cerevisiae deletion strains, growth OD, locus YMR219W, strain ESC1, active compounds read low
In all, about 5,500 compounds went through this assay and about 2,000 (36%) were called active. Not shown: some 18% with an inconclusive outcome. This is one part of the list.
# key: entry, value: normalized growth
Format: numeric value only, no unit, no commentary.

compound_structure=CC(=O)Nc1ccc(S(=O)(=O)Nc2ncccn2)cc1 quantitative_result=1
compound_structure=O=c1c2cc(NS(=O)(=O)c3ccc(Cl)cc3)ccc2oc2ncccc12 quantitative_result=1.02
compound_structure=Cc1cc(NS(=O)(=O)c2ccc(NS(=O)(=O)c3ccc(Cl)cc3)cc2)no1 quantitative_result=1.01
compound_structure=Cn1nccc1NS(=O)(=O)c1cccc(Cl)c1 quantitative_result=0.998
compound_structure=O=C1/C(=C/c2ccc(Cl)cc2)COc2ccc(F)cc21 quantitative_result=0.963
compound_structure=COc1ccc(CCNC(=S)NCCc2ccc(OC)c(OC)c2)cc1OC quantitative_result=1
compound_structure=O=S(=O)(Nc1ccc(Oc2ccc(Cl)cc2)cc1)c1ccccc1 quantitative_result=0.925

Query: What value of normalized growth has been recorded for this entry: Cc1ccc(S(=O)(=O)Nc2ccc(C)c([N+](=O)[O-])c2)cc1
Result: 0.993

----------
- protocol: chemical genetic growth profiling, strain panel (AID 1159580);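 also: tested at 20 µM; growth read once vehicle control cultures reached saturation at 30 °C; 1 = growth at the plate median or of vehicle wells; lower values mean less growth of the strain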
- condition-parameters: S. cerevisiae deletion strains, growth OD, locus YOR061W, strain CKA2
Out of some 5,500 compounds screened, about 2,000 (36%) were called active. About 18% were inconclusive and are not listed. Cut-off read from the data, not from the text of the source: active = normalized growth mostly below about 0.91 (no sharp cut-off); inconclusive = no clear call, values can overlap the other calls; inactive = mostly above about 0.92. This is one part of the list.
The reply should name one outcome from active, inactive

molecule=O=C(Nc1ccccc1)Nc1ccccc1 assigned_label=inactive

Query: What did the test return for COc1ccc(CC2CCC(=NOC(=O)c3ccc(C(C)(C)C)cc3)CC2)cc1 (configuration not stated) ?
Result: inactive

Query: Request: COc1ccc(C(=O)N2CCCC2=O)cc1
Result: inactive

Query: Request: CN(C)CCC(c1ccc(Br)cc1)c1ccccn1 (configuration not stated)
Result: inactive

Query: Request: O=C(CCn1c(=O)oc2ccccc21)Sc1ccc(C(F)(F)F)cc1
Result: active

Query: Request: COc1cc(OC)c(OC)cc1C=O
Result: inactive

Query: Request: CC(=O)O[C@H]1C[C@@H](OC(C)=O)C(C)(C)C2CC(=O)[C@]3(C)C(CC[C@@]4(C)[C@H](c5ccoc5)OC(=O)[C@H]5O[C@]543)[C@]21C (some centres not stated)
Result: inactive

Query: Request: COc1ccc(OC)c(-c2ccn[nH]2)c1OCc1ccccc1
Result: inactive

Query: Request: COc1ccc(C(=O)CC(=O)c2ccc(C(C)(C)C)cc2)cc1
Result: inactive

Query: Request: CC1C/C(=N/Nc2ccc(Br)cc2)c2cc(Cl)ccc2S1 (configuration not stated)
Result: active

Query: Request: Nc1ccncc1
Result: inactive

Query: Request: O=C(Nc1ccccc1)c1ccccc1O
Result: inactive

----------
- protocol: chemical genetic growth profiling, strain panel (AID 1159580);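 also: tested at 20 µM; growth read once vehicle control cultures reached saturation at 30 °C; 1 = growth at the plate median or of vehicle wells; lower values mean less growth of the strain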
- condition-parameters: S. cerevisiae deletion strains, growth OD, locus YLR113W, strain HOG1, active compounds read low
Among all 5,500 compounds or so, about 2,000 (36%) were called active. Inconclusive results (about 18%) are left out. The list shows a part of the results.
experimental-endpoint: normalized growth
Format: numeric value only, no unit, no commentary.

compound_structure=COc1cc2c(cc1-c1cc3cc4ccoc4cc3oc1=O)OCO2 experimental_endpoint="normalized growth" quantitative_result=0.996
compound_structure=COc1ccc(C(=O)NCc2csc3ccc(Cl)cc23)cc1OC experimental_endpoint="normalized growth" quantitative_result=0.92
compound_structure=CCCC(C(=O)OCCN(CC)CC)(c1ccccc1)c1ccccc1 experimental_endpoint="normalized growth" quantitative_result=0.966
compound_structure=NNC(=O)c1csc(Cc2c(Cl)sc3ccc(Cl)cc23)n1 experimental_endpoint="normalized growth" quantitative_result=1.07
compound_structure=COc1ccc(C(=O)CC(=O)c2ccc(C(C)(C)C)cc2)cc1 experimental_endpoint="normalized growth" quantitative_result=0.969

# evaluate next
Query: What value of normalized growth has been recorded for this entry: COc1ccc(OC)c(-c2ccn[nH]2)c1OCc1ccccc1
Result: 1.01

Numbers sourced from PubChem BioAssay AID1159580.
